# kon listing for each entry below
# ASSAY SYSTEM: T1, mfGITR.mmh (Macaca fasicularis)
# T1 construct: soluble monomeric construct; also called Macaca fasicularis (mf) GITR.mmh; cynomolgus GITR protein
# T1 chain: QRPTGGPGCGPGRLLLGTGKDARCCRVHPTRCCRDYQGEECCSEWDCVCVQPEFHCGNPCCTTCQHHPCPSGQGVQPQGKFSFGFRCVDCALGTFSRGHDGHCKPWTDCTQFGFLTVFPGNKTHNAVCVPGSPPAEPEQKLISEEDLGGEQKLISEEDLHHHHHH
# TEST DETAILS: SPR 37C, mAb capture
RECORDED METRIC: kon (M⁻¹ s⁻¹)

BINDER	OBSERVED VALUE
H4H14516P (antibody, human IgG4, V domains shown, human IgG4 (H4H)) VH: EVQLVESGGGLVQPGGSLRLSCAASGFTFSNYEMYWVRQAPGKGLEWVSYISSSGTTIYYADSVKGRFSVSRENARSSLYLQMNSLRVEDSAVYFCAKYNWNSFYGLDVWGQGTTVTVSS VL: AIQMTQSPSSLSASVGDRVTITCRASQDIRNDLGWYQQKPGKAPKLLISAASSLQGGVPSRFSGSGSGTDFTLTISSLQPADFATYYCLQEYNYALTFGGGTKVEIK	190000
H1H14474P (antibody, human IgG1, V domains shown, human IgG1 (H1H)) VH: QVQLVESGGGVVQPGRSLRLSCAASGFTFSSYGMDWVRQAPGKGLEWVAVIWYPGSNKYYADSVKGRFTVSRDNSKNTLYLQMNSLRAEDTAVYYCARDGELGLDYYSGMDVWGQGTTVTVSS VL: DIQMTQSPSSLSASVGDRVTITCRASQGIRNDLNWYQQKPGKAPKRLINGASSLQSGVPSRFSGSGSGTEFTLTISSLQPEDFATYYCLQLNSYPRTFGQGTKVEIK	339000
H4H14508P (antibody, human IgG4, V domains shown, human IgG4 (H4H)) VH: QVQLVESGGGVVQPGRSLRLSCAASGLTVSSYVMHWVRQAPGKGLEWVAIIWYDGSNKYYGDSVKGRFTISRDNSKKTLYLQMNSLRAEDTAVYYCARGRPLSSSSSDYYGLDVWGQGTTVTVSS VL: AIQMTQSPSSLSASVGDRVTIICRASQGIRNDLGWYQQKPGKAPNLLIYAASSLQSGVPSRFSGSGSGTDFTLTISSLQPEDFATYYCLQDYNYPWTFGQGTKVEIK	129000
H1H14523P (antibody, human IgG1, V domains shown, human IgG1 (H1H)) VH: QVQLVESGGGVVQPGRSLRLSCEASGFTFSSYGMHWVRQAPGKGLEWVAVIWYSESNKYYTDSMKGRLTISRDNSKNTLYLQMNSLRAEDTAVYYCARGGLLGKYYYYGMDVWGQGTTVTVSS VL: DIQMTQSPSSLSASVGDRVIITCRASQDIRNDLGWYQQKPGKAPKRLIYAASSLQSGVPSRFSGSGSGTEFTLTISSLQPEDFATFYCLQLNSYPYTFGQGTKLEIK	123000
H1H14493P (antibody, human IgG1, V domains shown, human IgG1 (H1H)) VH: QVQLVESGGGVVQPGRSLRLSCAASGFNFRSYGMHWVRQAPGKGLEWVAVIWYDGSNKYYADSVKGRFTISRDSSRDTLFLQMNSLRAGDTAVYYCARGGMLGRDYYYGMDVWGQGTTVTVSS VL: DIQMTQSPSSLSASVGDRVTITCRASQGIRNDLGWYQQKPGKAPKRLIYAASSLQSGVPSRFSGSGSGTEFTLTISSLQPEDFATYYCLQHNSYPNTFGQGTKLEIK	10000
H1H14486P (antibody, human IgG1, V domains shown, human IgG1 (H1H)) VH: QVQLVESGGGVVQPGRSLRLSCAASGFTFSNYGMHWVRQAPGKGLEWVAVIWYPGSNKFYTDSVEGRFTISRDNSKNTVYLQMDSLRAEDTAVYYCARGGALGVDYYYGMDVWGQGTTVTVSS VL: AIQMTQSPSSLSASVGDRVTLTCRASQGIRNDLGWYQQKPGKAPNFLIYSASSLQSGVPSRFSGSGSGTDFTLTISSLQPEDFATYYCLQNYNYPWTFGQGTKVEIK	137000
H1H14520P (antibody, human IgG1, V domains shown, human IgG1 (H1H)) VH: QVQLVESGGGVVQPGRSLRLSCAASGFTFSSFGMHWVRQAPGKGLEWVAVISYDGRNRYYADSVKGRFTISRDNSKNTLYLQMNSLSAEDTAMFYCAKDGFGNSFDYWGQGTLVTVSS VL: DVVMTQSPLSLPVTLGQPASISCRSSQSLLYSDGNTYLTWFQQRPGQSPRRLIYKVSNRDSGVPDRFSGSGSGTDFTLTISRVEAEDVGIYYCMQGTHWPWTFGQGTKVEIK	199000
H4H14530P (antibody, human IgG4, V domains shown, human IgG4 (H4H)) VH: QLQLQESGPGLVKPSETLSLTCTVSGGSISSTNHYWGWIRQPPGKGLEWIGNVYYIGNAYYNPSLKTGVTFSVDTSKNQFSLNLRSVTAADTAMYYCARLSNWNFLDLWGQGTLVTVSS VL: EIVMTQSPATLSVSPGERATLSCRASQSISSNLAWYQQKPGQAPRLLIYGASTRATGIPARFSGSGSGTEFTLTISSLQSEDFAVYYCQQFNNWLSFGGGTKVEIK	240000
H4H14469P (antibody, human IgG4, V domains shown, human IgG4 (H4H)) VH: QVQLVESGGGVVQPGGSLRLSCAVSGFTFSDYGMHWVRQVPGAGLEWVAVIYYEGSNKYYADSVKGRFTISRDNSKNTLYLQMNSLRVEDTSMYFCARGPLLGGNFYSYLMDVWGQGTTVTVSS VL: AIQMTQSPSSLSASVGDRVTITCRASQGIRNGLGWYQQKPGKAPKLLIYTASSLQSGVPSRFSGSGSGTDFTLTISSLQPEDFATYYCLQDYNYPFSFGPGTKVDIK	59100
H4H14525P (antibody, human IgG4, V domains shown, human IgG4 (H4H)) VH: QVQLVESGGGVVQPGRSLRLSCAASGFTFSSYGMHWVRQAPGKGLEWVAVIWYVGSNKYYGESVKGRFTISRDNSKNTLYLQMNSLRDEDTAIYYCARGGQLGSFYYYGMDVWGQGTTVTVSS VL: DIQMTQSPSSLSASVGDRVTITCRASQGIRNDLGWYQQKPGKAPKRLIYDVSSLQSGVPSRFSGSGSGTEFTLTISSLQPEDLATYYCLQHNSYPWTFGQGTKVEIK	133000
H4H14475P (antibody, human IgG4, V domains shown, human IgG4 (H4H)) VH: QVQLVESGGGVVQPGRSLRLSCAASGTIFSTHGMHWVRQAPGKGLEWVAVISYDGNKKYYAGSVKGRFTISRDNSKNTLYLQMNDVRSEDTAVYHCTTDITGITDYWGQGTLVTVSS VL: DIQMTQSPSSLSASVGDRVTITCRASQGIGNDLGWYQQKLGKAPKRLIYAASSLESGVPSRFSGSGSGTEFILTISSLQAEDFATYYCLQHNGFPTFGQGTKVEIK	183000

The reported measurements were obtained from patent US20170355774A1.
